- System: potato 5-lipoxygenase
- experiment description: 5-Lipoxygenase enzyme inhibitory activity
- Format: biochemical
- condition: 10 μg/ml
parameter measured: % inhibition at 10 μg/ml
Put your answer as a value accompanied by its unit after it.

compound	readout value
CC(=O)O[C@@H]1CC[C@@]2(C)C(CC[C@]3(C)C2C(=O)C=C2C4[C@@H](C)[C@H](C)CC[C@]4(C)CC[C@]23C)[C@@]1(C)C(=O)N(C)C (some centres unmarked) [Analog 31]	18.57%
CCCCNC(=O)[C@]1(C)C2CC[C@]3(C)C(C(=O)C=C4C5[C@@H](C)[C@H](C)CC[C@]5(C)CC[C@]43C)[C@@]2(C)CC[C@H]1OC(C)=O (some centres unmarked) [Analog 29]	33.29%
CC(=O)O[C@@H]1CC[C@@]2(C)C(CC[C@]3(C)C2C(=O)C=C2C4[C@@H](C)[C@H](C)CC[C@]4(C)CC[C@]23C)[C@@]1(C)C(=O)NCCCCCCCN (some centres unmarked) [Analog 35]	24.92%

(Q) Record request: % inhibition at 10 μg/ml value, item C[C@@H]1CC[C@]2(C)CC[C@]3(C)C(=CC(=O)C4[C@@]5(C)CC[C@@H](O)[C@](C)(C(=O)N6CCOCC6)C5CC[C@]43C)C2[C@H]1C (some centres unmarked) [Analog 36]
(A) 17.83%

(Q) If you can, please state the reported % inhibition at 10 μg/ml value of CC(=O)O[C@@H]1CC[C@@]2(C)C(CC[C@]3(C)C2C(=O)C=C2C4[C@@H](C)[C@H](C)CC[C@]4(C)CC[C@]23C)[C@@]1(C)C(=O)Nc1ccc(O)cc1 (some centres unmarked) [Analog 46] .
(A) 19.01%

* * *

- System: MDA-MB-231
- experiment description: MTT cell proliferation assay, MDA-MB-231
- Type: cell-based, human
- condition: Table 4; 10 μg/ml
- Protocol: MTT [3-(4,5-dimethylthiazol-2-yl)-2,5-diphenyltetrazolium bromide] incorporation based cell proliferation assay was performed as described previously (Reference). The cytotoxic efficacy of some analogs was evaluated in different cell lines by MTT cell proliferation assay kit (Roche Applied Sciences, Germany). […] After complete solubilization of the formazan crystals the absorbance was read at 540 nm in a microplate reader (BioRad, USA). […]
The compounds listed here are annotated with their Percentage Inhibition of cell proliferation MDA-MB-231.
# output: bare number, implied unit % at 10 μg/ml

compound	readout value
CC(=O)O[C@@H]1CC[C@@]2(C)C(CC[C@]3(C)C2C(=O)C=C2C4[C@@H](C)[C@H](C)CC[C@]4(C)CC[C@]23C)[C@@]1(C)C(=O)NCCNC=O (some centres unmarked)	8.8

(Q) Entry CC1CCC2(C)CCC3(C)C(=CC(=O)C4C5(C)CCC(OC(=O)CCC(=O)O)C(C)(C(=O)O)C5CCC43C)C2C1C (centres unmarked) : reported Percentage Inhibition of cell proliferation MDA-MB-231 = ?
(A) 40.7

(Q) Field request: Percentage Inhibition of cell proliferation MDA-MB-231 | item: CCCCNC(=O)[C@]1(C)C2CC[C@]3(C)C(C(=O)C=C4C5[C@@H](C)[C@H](C)CC[C@]5(C)CC[C@]43C)[C@@]2(C)CC[C@H]1OC(C)=O (some centres unmarked)
(A) 36

(Q) # Percentage Inhibition of cell proliferation MDA-MB-231 lookup, item CC(=O)OC1CC[C@@]2(C)C(CC[C@]3(C)C2C(=O)C=C2C4[C@@H](C)[C@H](C)CC[C@]4(C)CC[C@]23C)[C@@]1(C)C(N)=O (some centres unmarked)
(A) 38.72

* * *

- Test system: potato 5-lipoxygenase
- experiment description: 5-Lipoxygenase enzyme inhibitory activity
- Assay type: biochemical
- condition: 10 μg/ml
parameter measured: % inhibition at 10 μg/ml (%)
All answers are understood in %, so give the number only.

molecule	target system	% inhibition at 10 μg/ml, %
CC(=O)O[C@@H]1CC[C@@]2(C)C(CC[C@]3(C)C2C(=O)C=C2C4[C@@H](C)[C@H](C)CC[C@]4(C)CC[C@]23C)[C@@]1(C)C(=O)NCCNC=O (stereo partly drawn)	potato 5-lipoxygenase	22.78
CC(=O)O[C@@H]1CC[C@@]2(C)C(CC[C@]3(C)C2C(=O)C=C2C4[C@@H](C)[C@H](C)CC[C@]4(C)CC[C@]23C)[C@@]1(C)C(=O)NNc1ccccc1 (stereo partly drawn)	potato 5-lipoxygenase	35.94

Turning now to a further record.
(Q) Which % inhibition at 10 μg/ml is reported for this molecule? CC(=O)O[C@@H]1CC[C@]2(C)C3=C(Cl)C=C4C5[C@@H](C)[C@H](C)CC[C@]5(C)CC[C@@]4(C)[C@]3(C)CCC2[C@@]1(C)C(=O)N1CCNCC1 (stereo partly drawn)
(A) 36.20

* * *

- Test system: MDA-MB-231
- experiment description: MTT cell proliferation assay, MDA-MB-231
- Type: cell-based, human
- condition: Homo sapiens, MDA-MB-231; Table 4; 10 μg/ml; read-out: Percentage Inhibition of cell proliferation MDA-MB-231
parameter measured: inhibition at 10 µg/mL
The reply must contain the numeric value and, after it, the unit.

compound	inhibition at 10 µg/mL
COC(=O)CCC(NC(=O)[C@]1(C)C2CC[C@]3(C)C(C(=O)C=C4C5[C@@H](C)[C@H](C)CC[C@]5(C)CC[C@]43C)[C@@]2(C)CC[C@H]1OC(C)=O)C(=O)OC (some centres unmarked)	47%
CC(=O)O[C@@H]1CC[C@@]2(C)C(CC[C@]3(C)C2C(=O)C=C2C4[C@@H](C)[C@H](C)CC[C@]4(C)CC[C@]23C)[C@@]1(C)C(=O)n1ccnc1 (some centres unmarked)	31%
CC(=O)O[C@@H]1CC[C@@]2(C)C(CC[C@]3(C)C2C(=O)C=C2C4[C@@H](C)[C@H](C)CC[C@]4(C)CC[C@]23C)[C@@]1(C)C(=O)NC(C)C (some centres unmarked)	35%

(Q) // returns reported inhibition at 10 µg/mL for input CC(=O)O[C@@H]1CC[C@@]2(C)C(CC[C@]3(C)C2C(=O)C=C2C4[C@@H](C)[C@H](C)CC[C@]4(C)CC[C@]23C)[C@@]1(C)C(=O)N(C)C (some centres unmarked)
(A) 46%

(Q) GET /values?readout=inhibition at 10 µg/mL&item= COC(=O)CNC(=O)[C@]1(C)C2CC[C@]3(C)C(C(=O)C=C4C5[C@@H](C)[C@H](C)CC[C@]5(C)CC[C@]43C)[C@@]2(C)CC[C@H]1OC(C)=O (some centres unmarked)
(A) 41%

* * *

- Tested on: potato 5-lipoxygenase
- experiment description: 5-Lipoxygenase enzyme inhibitory activity
- Format: biochemical
- condition: 25 μg/ml
Below, each entry is listed with its recorded % inhibition at 25 μg/ml.
Your answer is read as %, so omit the unit and give the number.

Consider the following illustrative entries.
compound	% inhibition at 25 μg/ml / %
CC(=O)O[C@@H]1CC[C@]2(C)C3=C(Cl)C=C4C5[C@@H](C)[C@H](C)CC[C@]5(C)CC[C@@]4(C)[C@]3(C)CCC2[C@@]1(C)C(=O)N1CCNCC1 (stereo partly drawn) [Analog 63]	57.86
CC(=O)O[C@@H]1CC[C@@]2(C)C(CC[C@]3(C)C2C(=O)C=C2C4[C@@H](C)[C@H](C)CC[C@]4(C)CC[C@]23C)[C@@]1(C)C(=O)Nc1ccccc1Br (stereo partly drawn) [Analog 44]	30.02

Switching to the query record.
(Q) Which % inhibition at 25 μg/ml is listed for C[C@@H]1CC[C@]2(C)CC[C@]3(C)C(=CC(=O)C4[C@@]5(C)CC[C@@H](O)[C@](C)(C(=O)N6CCOCC6)C5CC[C@]43C)C2[C@H]1C (stereo partly drawn) [Analog 36] ?
(A) 34.40

* * *

- Test system: MDA-MB-231
- experiment description: MTT cell proliferation assay, MDA-MB-231
- Assay type: cell-based, human
- condition: Homo sapiens, MDA-MB-231; Table 4; 10 μg/ml; read-out: Percentage Inhibition of cell proliferation MDA-MB-231
parameter measured: inhibition at 10 µg/mL (%)
Your answer should be a plain number; it is taken to be in %.

Solved entries:
compound	parameter measured	readout value
CC(=O)O[C@@H]1CC[C@@]2(C)C(CC[C@]3(C)C2C(=O)C=C2C4[C@@H](C)[C@H](C)CC[C@]4(C)CC[C@]23C)[C@@]1(C)C(=O)Nc1ccccc1 (stereo partly drawn)	inhibition at 10 µg/mL	6
CC(=O)O[C@@H]1CC[C@@]2(C)C(CC[C@]3(C)C2C(=O)C=C2C4[C@@H](C)[C@H](C)CC[C@]4(C)CC[C@]23C)[C@@]1(C)C(=O)NNc1ccccc1 (stereo partly drawn)	inhibition at 10 µg/mL	39

Now consider the entry below.
(Q) // lookup inhibition at 10 µg/mL for CC(=O)O[C@@H]1CC[C@@]2(C)C(CC[C@]3(C)C2C(=O)C=C2C4[C@@H](C)[C@H](C)CC[C@]4(C)CC[C@]23C)[C@@]1(C)C(=O)NC1Cc2ccccc2C1 (stereo partly drawn)
(A) 23
